Hello, the source for this data is patent US8455649B2, in case you need it.

- System: Beet Armyworm (Spodoptera exigua)
- assay details: Insecticidal diet-surface test for beet armyworm
- Type: in vivo
- study conditions: 120 h, second-instar larvae on treated diet, 50 μg/cm^2 on diet surface, 5 days after treatment, 8 insects per treatment, read-out: LAPHEG AVG % Mortality (50 μg/cm^2)
measurement type: mortality at 50 µg/cm2
A bare number is not enough; add the unit after it.

Here's what some known entries look like.
INSERT INTO results (structure_string, measurement) VALUES
  ('CN(C(=O)Nc1nc(OCC(F)(F)F)nc(OCC(F)(F)F)n1)c1ccc(C(F)(F)F)cc1', '100%'),
  ('O=C(Nc1ccc(OC(F)(F)F)cc1)Nc1cc(OCC(F)(F)F)nc(OCC(F)(F)F)n1', '38%'),
  ('O=C(Nc1ccc(OC(F)(F)F)cc1)Nc1nc(OCC(F)(F)F)cc(OCC(F)(F)F)n1', '100%'),
  ('CN(C(=O)Nc1nc(OCC(F)(F)F)cc(OCC(F)(F)F)n1)c1ccc(C(F)(F)F)c(Cl)c1', '100%'),
  ('O=C(Nc1ccc(OCC(F)F)cc1)Nc1nc(OCC(F)(F)F)cc(OCC(F)(F)F)n1', '75%');

For each of the compounds below, state mortality at 50 µg/cm2.
1. CN(C(=O)Nc1nc(OCC(F)(F)F)cc(OCC(F)(F)F)n1)c1ccc(OC(F)(F)C(F)F)cc1
2. O=C(Nc1ccc(C(F)(F)F)cc1)Nc1nc(OCC(F)(F)C(F)(F)F)cc(OCC(F)(F)C(F)(F)F)n1

Reply:
100%
0%

###

Task for the reader: assign each of the following compounds its reported mortality at 50 µg/cm2.
- System: Beet Armyworm (Spodoptera exigua)
- assay details: Insecticidal diet-surface test for beet armyworm
- Format: in vivo
- study conditions: 120 h, second-instar larvae on treated diet, 50 μg/cm^2 on diet surface, 5 days after treatment, 8 insects per treatment, read-out: LAPHEG AVG % Mortality (50 μg/cm^2)
One number for each entry, in %.

INSERT INTO assay_data (structure_string, measurement) VALUES
  ('[2H]C([2H])([2H])N(C(=O)Nc1nc(OCC(F)(F)F)cc(OCC(F)(F)F)n1)c1ccc(C(F)(F)F)cc1', 100);

For each of the compounds below, state mortality at 50 µg/cm2.
1. CN(C(=O)Nc1cc(OCC(F)(F)F)nc(OCC(F)(F)F)n1)c1ccc(Cl)nc1
2. CCOC(=O)N(C(=O)N(COCc1ccccc1)c1nc(OCC(F)(F)F)cc(OCC(F)(F)F)n1)c1ccc(C(F)(F)F)cc1
3. O=C(Nc1ccc(C(F)(F)F)cc1)N(COCc1ccccc1)c1nc(OCC(F)(F)F)cc(OCC(F)(F)F)n1
4. CN(C(=O)Nc1nc(OCC(F)(F)F)cc(OCC(F)(F)F)n1)c1ccc(Br)cc1C(F)(F)F
5. O=C(Nc1ccc(C(F)(F)F)cc1)Nc1nc(Cl)cc(OCC(F)(F)F)n1

Reply:
[100, 100, 100, 50, 100]

For each of the compounds below, state mortality at 50 µg/cm2.
1. COCN(C(=O)N(COCc1ccccc1)c1nc(OCC(F)(F)F)cc(OCC(F)(F)F)n1)c1ccc(Br)cc1
2. COC(=O)c1ccc(N(C)C(=O)Nc2nc(OCC(F)(F)F)cc(OCC(F)(F)F)n2)cc1

Reply:
1. 100
2. 100

For each of the compounds below, state mortality at 50 µg/cm2.
1. O=C(Nc1cc(F)c(C(F)(F)F)c(F)c1)Nc1nc(OCC(F)(F)F)cc(OCC(F)(F)F)n1
2. CN(C(=O)Nc1nc(OCC(F)(F)F)cc(OCC(F)(F)F)n1)c1ccc(Cl)c(Cl)c1
3. CN(C(=O)Nc1nc(OCC(F)(F)F)cc(OCC(F)(F)F)n1)c1ccc(C(F)(F)C(F)(F)F)cc1

Reply:
1. 100
2. 100
3. 100

For each of the compounds below, state mortality at 50 µg/cm2.
1. O=C(Nc1ccc(I)cc1)Nc1nc(OCC(F)(F)F)cc(OCC(F)(F)F)n1
2. CN(C)CCN(C(=O)Nc1nc(OCC(F)(F)F)cc(OCC(F)(F)F)n1)c1ccc(OC(F)(F)F)cc1
3. O=C(Nc1ccc(C(F)(F)F)nc1)N(COCc1ccccc1)c1nc(OCC(F)(F)F)cc(OCC(F)(F)F)n1
4. O=C(Nc1ccc(S(=O)(=O)C(F)(F)F)cc1)Nc1nc(OCC(F)(F)F)cc(OCC(F)(F)F)n1

Reply:
1: 100; 2: 100; 3: 100; 4: 0
